Data origin: PubChem BioAssay (NCI)

Quick list: TGI per entry.
# System: CAKI-1 renal
# experiment.notes: NCI tumour cell line growth inhibition, 48 h

Sample records with TGI:
compound	reported.property	observed
O=C1OCC2(CO1)CC1C=CC2C1 (stereo not drawn)	TGI	> 100 µM
O=C1c2cccnc2S(=O)N1Cc1ccccc1 (stereo not drawn)	TGI	> 100 µM

Missing value: TGI, CAKI-1 renal, entry N#CC(=S)Nc1ccc(Cl)c(Cl)c1 . Fill in?
55.1 µM

###

# System: K-562 leukemia
One label from this list, please: active, inactive

Record excerpt, results attached:
smi	class.label
CCOC(=O)c1c(-c2ccccc2)[n+](=O)c2ccc(Cl)cc2n1[O-]	inactive
O=C1/C(=C\C(Cl)=C/c2ccc([N+](=O)[O-])cc2)SC(=S)N1CCc1ccc(O)cc1	active

Pending compound:
Tell me the assay call for O=C(Nc1nccs1)c1cc2c(cc1Cl)Sc1nccn1S2(=O)=O please.
inactive
